Reference source: ChEMBL document CHEMBL1201862

experiment: microbe, parasite or virus in culture; assay type: functional; conditions: Mycobacterium tuberculosis
Activity calls are given as the source filed them.
Reported endpoint: CC50

As a guide, the following entries are already answered.
Compound	CC50
C[C@@H]1CCCCCCCCC(=O)OCCN[C@H](C)CCCCCCCCC(=O)OCCN[C@H](C)CCCCCCCCC(=O)OCCN1	26.5 µM (active)
CCCCCc1ccc(S(=O)(=O)NCCc2ccncc2)cc1	12.1 µM (active)
CN1CCN(Cn2cc(/C=C/C(=O)c3ccccc3)c3ccccc32)CC1	> 40 µM (active)
COc1ccccc1/C=N/NC(=O)NC12CC3CC(CC(C3)C1)C2	> 40 µM (active)
Cc1cccc(/C=C2/SC(N/N=C3\CC4CCC3(C)C4(C)C)=NC2=O)c1 (stereo unspecified)	> 40 µM (active)

Lab note: next compound to report on.
// query Consider the compound COc1ccccc1C(=O)NC(=S)/C=C1/N(C)c2ccccc2C1(C)C and give its measured CC50.
// result > 40 µM (active)

====

Listed below: AC50 values for each entry.
target: Cytochrome P450 3A4 (Homo sapiens, UniProt P08684);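 further: CYP3A4 tested as one member of a cytochrome P450 panel screen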
Sequence (P08684 whole entry): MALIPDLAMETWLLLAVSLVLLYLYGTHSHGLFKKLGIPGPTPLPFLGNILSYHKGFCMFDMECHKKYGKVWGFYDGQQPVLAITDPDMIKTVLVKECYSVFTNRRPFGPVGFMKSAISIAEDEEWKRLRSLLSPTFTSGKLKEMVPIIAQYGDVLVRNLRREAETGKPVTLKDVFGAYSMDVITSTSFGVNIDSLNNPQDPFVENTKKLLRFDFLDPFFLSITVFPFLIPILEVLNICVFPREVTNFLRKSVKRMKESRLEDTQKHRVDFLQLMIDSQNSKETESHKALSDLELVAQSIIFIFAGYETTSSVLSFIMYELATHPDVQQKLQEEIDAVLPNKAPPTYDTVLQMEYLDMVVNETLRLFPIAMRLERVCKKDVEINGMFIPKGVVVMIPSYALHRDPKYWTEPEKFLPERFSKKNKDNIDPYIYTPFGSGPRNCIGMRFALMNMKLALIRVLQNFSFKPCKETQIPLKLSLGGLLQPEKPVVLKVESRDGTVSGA

Molecule	AC50
N#CC1=C(N)OC2=C(CC/C2=C\c2ccccc2)C1c1ccccc1 (centres undefined)	39.8 µM (inconclusive)

// query Consider the molecule C=C(C)CN1CC[C@@]23c4c5ccc(O)c4O[C@H]2c2[nH]c4ccccc4c2C[C@]3(O)[C@@H]1C5 and give its measured AC50.
// result 31.6 µM (inconclusive)

// query Consider the molecule COc1ccc(-c2nc3cnc(N(C)C)nc3n(Cc3cccs3)c2=O)cc1 and give its measured AC50.
// result 12.6 µM (inconclusive)

// query Consider the molecule COc1ccc(NC(=O)N2CC[C@@]3(CCCN(C(=O)c4c(C)noc4C)C3)C2)cc1 and give its measured AC50.
// result 7.94 µM (inconclusive)

====

Listed below: AC50 values for each entry.
target: FAD-linked sulfhydryl oxidase ALR (Homo sapiens); assay: inhibitors of human ALR sulfhydryl oxidase, dose response, biochemical, H2O2 detection, luminescence, cherry-pick (AID 493248)
Sequence (P55789 whole entry): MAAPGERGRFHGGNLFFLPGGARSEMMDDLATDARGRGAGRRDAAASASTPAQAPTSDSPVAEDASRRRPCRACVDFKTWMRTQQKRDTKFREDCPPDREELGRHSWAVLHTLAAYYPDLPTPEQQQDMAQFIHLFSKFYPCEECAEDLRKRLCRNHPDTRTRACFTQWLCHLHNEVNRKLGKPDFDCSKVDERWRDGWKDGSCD
Activity calls are given as the source filed them.

Mol	Assay value
COc1ccc(CCSc2nnc(C3CCCCC3)n2N)cc1	2810 nM (active)

// query Consider the molecule Cc1ccc(S(=O)(=O)NNc2ccccc2)c(C)c1 and give its measured AC50.
// result 319 nM (active)

====

molecular target: Microphthalmia-associated transcription factor (Homo sapiens, UniProt O75030); assay: TRPM1 promoter luciferase signal decrease, dose response, MITF inhibitor project, cell-based, SK-MEL-5, cherry-picked, set 3 (AID 493073); type: functional
Sequence (O75030 whole entry): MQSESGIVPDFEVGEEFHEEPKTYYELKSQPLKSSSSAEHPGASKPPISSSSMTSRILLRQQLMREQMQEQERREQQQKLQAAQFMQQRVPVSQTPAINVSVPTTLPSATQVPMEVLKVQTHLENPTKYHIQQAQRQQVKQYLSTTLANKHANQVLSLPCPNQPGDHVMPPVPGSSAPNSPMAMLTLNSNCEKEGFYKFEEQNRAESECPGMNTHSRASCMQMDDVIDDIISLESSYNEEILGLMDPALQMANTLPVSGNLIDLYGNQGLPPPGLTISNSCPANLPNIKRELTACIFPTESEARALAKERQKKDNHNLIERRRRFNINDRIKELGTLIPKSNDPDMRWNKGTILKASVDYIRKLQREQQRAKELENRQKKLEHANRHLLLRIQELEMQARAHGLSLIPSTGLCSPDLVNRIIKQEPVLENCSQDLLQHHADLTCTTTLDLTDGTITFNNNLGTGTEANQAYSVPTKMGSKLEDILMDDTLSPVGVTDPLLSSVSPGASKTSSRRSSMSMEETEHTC
Calls of active or inactive are those of the source.
Listed below: AC50 values for each entry.

As a guide, the following entries are already answered.
Compound	AC50
CCOc1ccccc1NC(=O)C(=O)N/N=C/c1cc(Br)ccc1O	3.34 µM (active)
CCSC1(SCC)N=C(N)C2(C#N)C(c3ccc(F)cc3)C12C#N (stereo not given)	14 µM (active)
N#CC(C#N)=C1C=CC=CN1/C(=C\c1ccco1)C(=O)c1ccc(Br)cc1	5.59 µM (active)
COc1ccc(-c2nn(-c3ccccc3)cc2/C=N/N=C(N)N)cc1OC	14.6 µM (active)

Lab note: next compound to report on.
// query Consider the compound Cc1ccc(C(=O)N/C(=C\c2ccc(-c3ccccc3[N+](=O)[O-])o2)C(=O)NCCCN(C)C)cc1 and give its measured AC50.
// result 3.28 µM (active)

====

biological target: Polyadenylate-binding protein 1 (Homo sapiens, UniProt P11940); assay: PABP1 MLLE–PAM2 binding inhibitor potency, dose response, biochemical, fluorescence polarization, FITC-PAM2 peptide (AID 602259); type: functional; details: read-out: IC50_Mean
Sequence (P11940 whole entry): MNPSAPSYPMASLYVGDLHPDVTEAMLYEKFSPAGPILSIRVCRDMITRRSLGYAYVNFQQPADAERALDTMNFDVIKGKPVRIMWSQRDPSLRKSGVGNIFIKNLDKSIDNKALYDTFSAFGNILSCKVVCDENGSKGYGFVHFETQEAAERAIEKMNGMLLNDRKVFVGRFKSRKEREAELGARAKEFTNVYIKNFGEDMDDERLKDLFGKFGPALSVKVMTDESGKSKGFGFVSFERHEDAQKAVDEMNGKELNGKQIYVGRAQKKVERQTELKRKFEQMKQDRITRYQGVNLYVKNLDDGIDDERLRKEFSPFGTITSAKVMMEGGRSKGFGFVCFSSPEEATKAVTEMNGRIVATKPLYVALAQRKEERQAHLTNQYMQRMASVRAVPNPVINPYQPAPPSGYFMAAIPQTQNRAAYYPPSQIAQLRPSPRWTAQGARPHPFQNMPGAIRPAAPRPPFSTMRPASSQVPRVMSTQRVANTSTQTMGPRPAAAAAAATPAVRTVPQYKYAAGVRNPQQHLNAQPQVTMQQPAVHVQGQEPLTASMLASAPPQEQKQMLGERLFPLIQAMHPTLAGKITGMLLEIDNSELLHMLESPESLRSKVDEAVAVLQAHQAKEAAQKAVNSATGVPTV
Activity calls are given as the source filed them.
Reported endpoint: IC50

As a guide, the following entries are already answered.
Compound	IC50
CN(C)CCCN1C(=O)c2cccc3c([N+](=O)[O-])ccc(c23)C1=O	60.1 µM (inactive)
O=C1NC2=C(C(=O)CCC2)C(c2ccccc2[N+](=O)[O-])N1 (centres undefined)	> 66 µM (inactive)
CCNC(=S)NC(=Nc1nc(C)cc(C)n1)NCc1cccnc1	> 66 µM (inactive)

Lab note: next compound to report on.
// query Consider the compound CCOC(=O)c1sc(=S)n(C)c1NC(=O)c1ccccc1Cl and give its measured IC50.
// result > 66 µM (inactive)

====

Target: Heat shock factor protein 1 (Mus musculus)
Sequence (P38532 whole entry): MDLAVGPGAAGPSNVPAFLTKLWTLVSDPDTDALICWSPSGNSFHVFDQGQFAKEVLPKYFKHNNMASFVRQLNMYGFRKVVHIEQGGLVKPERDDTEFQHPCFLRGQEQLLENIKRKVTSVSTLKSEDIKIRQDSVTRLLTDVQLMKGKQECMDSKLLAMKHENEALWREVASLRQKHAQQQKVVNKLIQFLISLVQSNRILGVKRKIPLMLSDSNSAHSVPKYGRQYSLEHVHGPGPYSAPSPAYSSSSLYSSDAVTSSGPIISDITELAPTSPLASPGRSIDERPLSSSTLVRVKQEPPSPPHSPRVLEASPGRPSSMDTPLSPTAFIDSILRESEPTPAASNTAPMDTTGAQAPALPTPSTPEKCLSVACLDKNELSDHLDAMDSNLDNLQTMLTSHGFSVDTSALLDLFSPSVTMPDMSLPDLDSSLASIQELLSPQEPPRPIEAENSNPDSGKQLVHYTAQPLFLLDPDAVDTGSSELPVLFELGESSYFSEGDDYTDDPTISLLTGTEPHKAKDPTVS
Experiment: inhibition of MG132-induced HSE-luciferase signal, confirmation, cell-based, NIH3T3, luminescence, dose retest (AID 2382);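 further: NIH3T3 fibroblasts with HSF1-driven luciferase reporter stressed by proteasome inhibitor MG132; luminescence from HSF1-driven luciferase expression after 8 hours of MG132 stress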
Assay type: functional
Reported endpoint: EC50

// query Consider the compound Cc1ccc(C(=O)Nc2ccc3c(c2)C(=O)NC3=O)cc1 and give its measured EC50.
// result > 195 µM (not active)

====

Listed below: AC50 values for each entry.
biological target: Dual specificity tyrosine-phosphorylation-regulated kinase 1A (Rattus norvegicus); assay type: biochemical, Homo sapiens
Activity calls are given as the source filed them.

As a guide, the following entries are already answered.
Mol	Target	Reported endpoint	Assay value
COc1cc(/C=C2\SC(N3CCC(C)CC3)=NC2=O)ccc1O	Dual specificity tyrosine-phosphorylation-regulated kinase 1A (Rattus norvegicus)	AC50	2.68 µM (active)
CSc1cccc(NC(=O)c2c(Cl)cnn2C)c1	Dual specificity tyrosine-phosphorylation-regulated kinase 1A (Rattus norvegicus)	AC50	7.08 µM (active)
O=[N+]([O-])c1ccc(O)c(/C=N/n2c(S)nnc2-c2ccccc2)c1	Dual specificity tyrosine-phosphorylation-regulated kinase 1A (Rattus norvegicus)	AC50	7.9 µM (active)
Fc1ccccc1N=C(S)Nc1cccc2cnccc12	Dual specificity tyrosine-phosphorylation-regulated kinase 1A (Rattus norvegicus)	AC50	5.56 µM (active)

Lab note: next compound to report on.
// query Consider the compound CN1CCc2nc3sc(C#N)c(N)c3c(-c3cccs3)c2C1 and give its measured AC50.
// result 3.27 µM (active)

====

assay: cytotoxicity toward NIH3T3 fibroblasts, dose response, counter-screen, cell-based, ATP luminescence, mouse fibroblasts (AID 2010); type: functional;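 further: cells exposed to compound for about 90 hours before reading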
Active and inactive are the calls of the source.
Listed below: EC50 values for each entry.

As a guide, the following entries are already answered.
Mol	Assay value
O=C(O)CCCCCCCCc1cn(Cc2ccc(C(=O)c3ccccc3)cc2)nn1	6.22 µM (active)
O=C(c1ccc([N+](=O)[O-])o1)N1CCN(c2nc3c(Cl)cccc3s2)CC1	20.6 µM (active)
CN(C)CCCN(C(=O)CCc1ccccc1)c1nc2c(F)cccc2s1	> 30 µM (not active)
Cc1nnc(SCc2ccc(Cl)cc2)nc1/C=C/N(C)C	> 60 µM (not active)

Lab note: next compound to report on.
// query Consider the compound COc1ccc(C)cc1Nc1n[n+](-c2ccccc2)c(-c2ccc(OC)c(OC)c2OC)s1 and give its measured EC50.
// result > 30 µM (not active)

====

Listed below: EC50 values for each entry.
tested on: BJ; test: cytotoxicity toward BJ-TERT-LT-ST fibroblasts, dose response, cell-based, RAS-independent, luminescence (AID 1935); format: functional; conditions: Homo sapiens;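 further: BJ fibroblasts immortalized with TERT plus LT and ST oncogenes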
Calls of active or inactive are those of the source.

Mol	EC50
CCOc1cc(CNc2ccc3c(c2)OCCO3)cc(Br)c1OCC	2.43 µM (inconclusive)
CCS(=O)(=O)c1ncc(Cl)c(C(=O)Nc2ccc(S(=O)(=O)N(C)c3ccccc3)cc2)n1	5.62 µM (inconclusive)

// query Consider the molecule CCOc1ccc2c(c1)C(C)=CC(C)(C)N2S(=O)(=O)c1ccc(NC(C)=O)cc1 and give its measured EC50.
// result 0.428 µM (inconclusive)

// query Consider the molecule O=C(NCc1cccnc1)c1ccc(-c2cc3ccccc3oc2=O)cc1 and give its measured EC50.
// result 3.16 µM (active)

// query Consider the molecule COc1ccc(C(=O)Nc2ccc(N3CCCC3)cc2)cc1OC and give its measured EC50.
// result > 150 µM (not active)

====

Listed below: EC50 values for each entry.
molecular target: RNA-binding protein pos-1 (Caenorhabditis elegans); assay: inhibitors of POS-1/mex-3 RNA binding, dose response, biochemical, fluorescence polarization (AID 1964);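 further: purified POS-1 fused to maltose binding protein made in E. coli; potency of compounds blocking POS-1 binding to fluorescent RNA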
Sequence (G5EF15 whole entry, the tested form may be a part): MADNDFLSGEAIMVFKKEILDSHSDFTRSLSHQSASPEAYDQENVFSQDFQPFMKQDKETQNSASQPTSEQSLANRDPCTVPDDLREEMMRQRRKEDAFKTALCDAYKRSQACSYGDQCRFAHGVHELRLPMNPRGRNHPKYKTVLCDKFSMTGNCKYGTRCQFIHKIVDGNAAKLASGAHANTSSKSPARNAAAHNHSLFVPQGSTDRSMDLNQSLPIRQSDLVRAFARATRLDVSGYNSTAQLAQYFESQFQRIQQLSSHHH
Calls of active or inactive are those of the source.

As a guide, the following entries are already answered.
Compound	Target	Reported endpoint	Assay value
CCOC(=O)c1c2ccc(OCC(=O)N/N=C/c3ccc(Cl)cc3)cc2n2ccccc12	RNA-binding protein pos-1 (Caenorhabditis elegans)	EC50	> 300 µM (not active)
COc1cc(/C=N/Nc2nc(O)nnc2C)cc([N+](=O)[O-])c1O	RNA-binding protein pos-1 (Caenorhabditis elegans)	EC50	7.98 µM (active)
COc1c(/C=C2/C(=O)NC(=O)N(C)C2=O)c(CCN(C)C(=O)c2ccccc2)cc2c1OCO2	RNA-binding protein pos-1 (Caenorhabditis elegans)	EC50	> 300 µM (not active)

// query Consider the compound Nc1cc(S(=O)(=O)O)cc([N+](=O)[O-])c1O and give its measured EC50.
// result > 300 µM (not active)

// query Consider the compound COC(=O)C1CSc2[nH]c(=O)sc2C1c1ccc(OC)c(OC)c1 (stereo not given) and give its measured EC50.
// result > 300 µM (not active)
